Biological target: recombinant Mcl-1 (residues 172-327) (Homo sapiens (Human))
Assay: Bak peptide fluorescence polarization anisotropy competition assay, Mcl-1
Format: binding
Conditions: read-out: Ki for inhibition of Mcl-1
Assay metric: Ki

{"Chem smiles": "Cc1cc(OCCCc2c(C(=O)NS(=O)(=O)CCNC(=O)c3cc(C)n(C4CC4)c3C)[nH]c3ccccc23)cc(C)c1Cl", "Assay metric": "Ki", "Result": "101 to 299 nM"}
{"Chem smiles": "Cc1cc(OCCCc2c(C(=O)NS(=O)(=O)c3ccc(OCc4ccccc4)cc3)n(C)c3cc(Cl)ccc23)cc(C)c1Cl", "Assay metric": "Ki", "Result": "301 to 500 nM"}
{"Chem smiles": "Cc1cc(OCCCc2c(C(=O)NS(=O)(=O)c3ccccc3)[nH]c3c(-c4cnn(C)c4)ccc(Cl)c23)cc(C)c1Cl", "Assay metric": "Ki", "Result": "301 to 500 nM"}
{"Chem smiles": "Cc1cc(OCCCc2c(C(=O)NS(=O)(=O)Cc3ccccc3)[nH]c3cc(Cl)ccc23)cc(C)c1Cl", "Assay metric": "Ki", "Result": "101 to 299 nM"}
{"Chem smiles": "CCc1ccc(CC(=O)NCCS(=O)(=O)NC(=O)c2[nH]c3ccccc3c2CCCOc2cc(C)c(Cl)c(C)c2)cc1", "Assay metric": "Ki", "Result": "101 to 299 nM"}

I would be grateful if you could share the reported Ki for O=C(NS(=O)(=O)CCNC(=O)C1CCCCC1)c1[nH]c2cc(Cl)ccc2c1CCCOc1cccc2ccccc12 .
301 to 500 nM

What about this compound? CCOc1ccc(Oc2ccc(S(=O)(=O)NC(=O)c3[nH]c4cc(Cl)ccc4c3CCCOc3cc(C)c(Cl)c(C)c3)cc2)cc1
301 to 500 nM

----------
Target: recombinant Mcl-1 (residues 172-327) (Homo sapiens (Human), UniProt Q07820)
Sequence (Q07820 172-327): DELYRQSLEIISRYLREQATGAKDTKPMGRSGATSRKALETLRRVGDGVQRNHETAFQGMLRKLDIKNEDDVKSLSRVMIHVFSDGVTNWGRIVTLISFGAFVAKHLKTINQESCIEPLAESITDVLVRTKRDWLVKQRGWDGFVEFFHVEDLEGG
Test: Bak peptide fluorescence polarization anisotropy competition assay, Mcl-1
Format: binding
Conditions: read-out: Ki for inhibition of Mcl-1
Below, each entry is listed alongside its reported Ki.

Take a look at these entries with their results.
{"Chem smiles": "Cc1cc(OCCCc2c(C(=O)NS(=O)(=O)CCNC(=O)[C@@H]3Cc4ccccc4N3C)[nH]c3cc(Cl)ccc23)cc(C)c1Cl", "Ki": "101 to 299 nM"}
{"Chem smiles": "Cc1cc(OCCCc2c(C(=O)NS(=O)(=O)CCCNC(=O)CCc3cc(-c4ccccc4)n[nH]3)[nH]c3cc(Cl)ccc23)cc(C)c1Cl", "Ki": "301 to 500 nM"}
{"Chem smiles": "CC(=O)NCCS(=O)(=O)NC(=O)c1[nH]c2cc(Cl)ccc2c1CCCOc1cc(C)c(Cl)c(C)c1", "Ki": "101 to 299 nM"}
{"Chem smiles": "CCOc1ccc(Oc2ccc(S(=O)(=O)NC(=O)c3[nH]c4ccccc4c3CCCOc3cc(C)c(Cl)c(C)c3)cc2)cc1", "Ki": "301 to 500 nM"}
{"Chem smiles": "CS(=O)(=O)NC(=O)c1[nH]c2cc(Br)ccc2c1CCCOc1cccc2ccccc12", "Ki": "301 to 500 nM"}

Form entry - test system: recombinant Mcl-1 (residues 172-327) (Homo sapiens (Human), UniProt Q07820); read-out: Ki; compound: Cc1cc(OCCCc2c(C(=O)NS(=O)(=O)CCNC(=O)/C=C/c3ccccc3)[nH]c3ccccc23)cc(C)c1Cl
101 to 299 nM

Quick one: O=C(O)c1sc2c(NCc3ccccc3)cccc2c1CCCOc1cccc2ccccc12
1000 to 9990 nM

Here is the next compound: COc1cccc(OCCCc2c(C(=O)NS(C)(=O)=O)[nH]c3cc(Cl)ccc23)c1
1000 to 9990 nM

Would you mind doing Cc1cc(OCCCc2c(C(=O)NS(=O)(=O)C3CCN(C(=O)CCc4ccccc4)CC3)[nH]c3cc(Cl)ccc23)cc(C)c1Cl as well?
101 to 299 nM

Then what about the compound Cc1cc(OCCCc2c(C(=O)NS(=O)(=O)c3cccnc3)[nH]c3ccccc23)cc(C)c1Cl ?
301 to 500 nM

Then this compound: Cc1cc(OCCCc2c(C(=O)NS(=O)(=O)CCNC(=O)c3ccccn3)[nH]c3ccccc23)cc(C)c1Cl
101 to 299 nM

Now consider Cc1cc(OCCCc2c(C(=O)NS(=O)(=O)CCNC(=O)C3CCCCC3)[nH]c3ccccc23)cc(C)c1Cl .
101 to 299 nM

What would you report for Cc1cc(OCCCc2c(C(=O)NS(=O)(=O)C3CCN(C(=O)c4cccn4Cc4ccccc4)CC3)[nH]c3cc(Cl)ccc23)cc(C)c1Cl ?
301 to 500 nM

Also, Cc1cc(OCCCc2c(C(=O)NS(C)(=O)=O)[nH]c3cccc(C(F)(F)F)c23)cc(C)c1Cl please.
101 to 299 nM
